- tested on: T1, Full-length human TIGIT on CHO-K1 cells (CHO-K1 human TIGIT) (human, UniProt Q495A1 22-244)
- T1 construct: NCBI XP_024309156.1; the entry includes the signal peptide (limits not recoverable); The strain (high, medium, low) is named under assay; also called high expression strain 1D2; medium expression strain 2D10
- T1 sequence: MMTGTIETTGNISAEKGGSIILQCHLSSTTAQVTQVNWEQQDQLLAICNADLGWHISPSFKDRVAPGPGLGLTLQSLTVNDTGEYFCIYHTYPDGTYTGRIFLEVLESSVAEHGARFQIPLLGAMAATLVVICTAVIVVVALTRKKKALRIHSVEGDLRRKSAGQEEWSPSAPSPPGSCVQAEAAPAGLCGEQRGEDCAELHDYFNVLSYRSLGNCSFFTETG
- method notes: cell binding, CHO-K1 human TIGIT high expression strain
- Method: The collected cells were washed once with PBS (Hyclone, CAT #SH30256), resuspended to 2×10⁵/50 μL with 1% BSA-PBS. The antibodies were diluted to 80 nM with 1% BSA-PBS (diluted by 3-fold serial dilution for 12 concentration points). The 50 μL cells were then mixed with 50 μL diluted antibodies, and then incubated at 4° C. for 60 minutes. […] After washing twice with PBS, the cell samples were resuspended with 1% BSA-PBS, 100 μL/well and then analyzed by flow cytometry (BD, Canto II). […] [0298] […]
measurement type: pEC50
Give bare numbers, as −log10 of the molar value.

Worked examples, 2 binders total:
binder="TIGIT-006-H3L3 (antibody, V domains shown, Humanized anti-TIGIT antibody) VH: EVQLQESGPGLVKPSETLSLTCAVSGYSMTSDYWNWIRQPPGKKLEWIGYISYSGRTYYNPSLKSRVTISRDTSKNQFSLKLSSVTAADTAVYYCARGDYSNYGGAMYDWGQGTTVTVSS VL: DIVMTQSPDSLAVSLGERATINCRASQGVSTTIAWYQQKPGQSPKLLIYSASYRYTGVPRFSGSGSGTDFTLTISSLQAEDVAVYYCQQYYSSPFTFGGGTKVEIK" quantitative_result=10.50
binder="TIGIT-070-H2L3 (antibody, V domains shown, Humanized anti-TIGIT antibody) VH: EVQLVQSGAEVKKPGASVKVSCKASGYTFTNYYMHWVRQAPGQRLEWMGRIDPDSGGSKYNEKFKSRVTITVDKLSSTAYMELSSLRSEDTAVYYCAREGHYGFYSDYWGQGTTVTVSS VL: DIVMTQSPDSLAVSLGERATINCRVSENIYSYLAWYQQKPGQSPKLLVYNAKTLAEGVPDRFSGSGSGTDFTLTISSLQAEDVAVYYCQHHYGNPLTFGPGTKVDIK" quantitative_result=10.68

Read the next record carefully.
Task: For the binder TIGIT-070-H3L1 (antibody, V domains shown, Humanized anti-TIGIT antibody) VH: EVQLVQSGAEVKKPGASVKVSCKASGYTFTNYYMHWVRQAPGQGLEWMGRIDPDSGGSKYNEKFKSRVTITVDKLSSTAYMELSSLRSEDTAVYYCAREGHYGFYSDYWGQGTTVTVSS VL: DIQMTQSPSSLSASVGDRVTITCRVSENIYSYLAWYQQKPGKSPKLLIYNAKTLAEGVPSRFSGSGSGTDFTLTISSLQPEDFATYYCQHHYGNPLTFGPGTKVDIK , what pEC50 is on record?
Output: 10.88
